assay: physchem
measurement-conditions: pH 7.4, aqueous buffer, thermodynamic from solid
measured-metric: solubility (µg/mL)

molecule: Cc1ccc(N2CCN(C)CC2)c2c1CC[C@@H](NC(=O)c1ccc(N3CCOCC3)cc1)C2 [Basic drug A]
experimental-value: 34
